List of melting point values.

Requested read-out: melting point. Entry: Cc1cc(C)cc(C(=O)N2CCN(C(=O)CNC3CCN(CCCc4ccccc4)CC3)C(c3ccc(Cl)c(Cl)c3)C2)c1 (racemic)
52 to 54 °C

For CCC(O)(c1ccc(OCCCN2CCCCC2)cc1)c1cccc(C(F)(F)F)c1 (stereo unspecified) then?
124 to 125 °C

For `COc1cc(C(=O)NC2CCN(C)CC2)ccc1Nc1ncc2c(n1)N(C1CCCC1)CC(F)(F)C(=O)N2C` then?
241 to 243 °C

For `CCCCCCc1cc2c(cc1C(=O)O)C(C)(C)CCC2(C)C` then?
98 to 99 °C

For COc1ccc(C2=NN(C3CCSCC3)C(=O)[C@H]3CC=CC[C@@H]23)cc1Cl (relative stereo) then?
170 to 171 °C

For N#Cc1cc(C2=NOC(c3cc(Cl)cc(Cl)c3)(C(F)(F)F)C2)ccc1F (stereo unspecified) then?
136 to 139 °C

====

List of melting point values.

INSERT INTO measurements (compound, assay_value) VALUES
  ('CC(C)C(NC(=O)C(NC(=O)C1CCCN1C(=O)OC(C)(C)C)C(Cc1ccccc1)C(=O)O)C(=O)NC(Cc1ccc(O)cc1)C(=O)OCc1ccccc1 (stereo not drawn)', '75 to 78 °C');

Requested read-out: melting point. Entry: `CSc1cc(C#N)c(Oc2ccc(Cl)c(Cl)c2)cn1`
96 to 97 °C

For `NS(=O)(=O)c1ccc(SCCO)s1` then?
46.5 to 47.5 °C

====

List of melting point values.

Below are worked cases with known answers.
INSERT INTO results (compound, assay_value) VALUES
  ('CC(=O)NC1CCN(c2ncc3ncnc(Nc4ccc(F)c(Cl)c4)c3n2)CC1', '263 to 265 °C'),
  ('CC(C)c1ccc2c(c1)C(N1CCN(CCCO)CC1)Cc1ccc(F)cc1S2 (stereo not drawn)', '106 to 108 °C');

Please find the next compound below.
Requested read-out: melting point. Entry: `CCNc1cccnc1N1CCN(C(=O)c2ccc(C(=O)N(CC)CCO)cc2)CC1`
106 to 108 °C

====

List of melting point values.

INSERT INTO results (compound, observation_type, assay_value) VALUES
  ('Cc1oc(-c2ccc(C(F)(F)F)cc2)nc1CCOc1ccc(CN(O)C(N)=O)cc1', 'melting point', '156 to 157 °C'),
  ('CCO[C@@H]1C(C(=O)Nc2ccc(Cl)cc2)=C(C)OC(OCC)(OCC)[C@H]1C (relative stereo)', 'melting point', '104 to 106 °C'),
  ('CCCCCCCOC(=O)Cc1nc(-c2ccc(Cl)cc2)oc1-c1ccco1', 'melting point', '69 to 70 °C'),
  ('CC(C#N)c1cccc2c(-c3ccc(Cl)cc3)nccc12 (configuration not stated)', 'melting point', '128 to 130 °C'),
  ('CCON1CC1C(N)=O (configuration not stated)', 'melting point', '50 to 54 °C');

Requested read-out: melting point. Entry: `Cc1nc2ccc(C)c(Sc3ccncc3)c2c(=O)[nH]1`
235 to 238 °C

For `Nc1ccc(N=Nc2ccccc2)cc1Cl` then?
152 to 153 °C

For `CCOc1ccc2c(=S)cc[nH]c2c1` then?
171 to 174 °C

For CCC(C)CNC(=O)c1ccc2c(c1)N(C(C)CN(C)CC)c1ccccc1S2 (mixture of isomers) then?
95 °C

For `Cc1cccc(N=C2NCCN2)c1C` then?
141 to 144 °C

For C[C@@H]1Cc2ccsc2[C@H](C)N1CCCCNS(=O)(=O)c1ccc(NS(C)(=O)=O)cc1 (relative stereo) then?
134 to 136 °C

For `CNc1c2oc3ccccc3c2nn1C` then?
154 to 156 °C

src = a melting point compilation (Tetko et al.; mined from patent text by program, amines drawn as free bases though some values may be those of a salt)
